B1: DnaJ homolog subfamily C member 5, residues 16 to 77; numbered along this chain, Q9H3Z4 (parent)
chain: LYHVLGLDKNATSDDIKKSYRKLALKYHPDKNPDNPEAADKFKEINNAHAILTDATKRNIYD

- Variants of: B1
- Protocol Text: abundance fitness (aPCA) (normalised: wild type 0, dead -1); higher = more abundant; growth selection in yeast, the domain comes from the species named
- Condition Set: Homo sapiens
abundance fitness values for the variants below.

{"Variant Label": "I60C", "abundance fitness": 0.109}
{"Variant Label": "A50R", "abundance fitness": -0.009}
{"Variant Label": "L7A", "abundance fitness": -0.298}
{"Variant Label": "K18E", "abundance fitness": 0.11}
{"Variant Label": "K41N", "abundance fitness": -0.434}
{"Variant Label": "K17T", "abundance fitness": -0.07}
{"Variant Label": "K9R", "abundance fitness": -0.116}
{"Variant Label": "H28C", "abundance fitness": -0.29}
{"Variant Label": "E44V", "abundance fitness": -0.264}
{"Variant Label": "N59D", "abundance fitness": -0.234}
{"Variant Label": "I16V", "abundance fitness": -0.238}
{"Variant Label": "L25G", "abundance fitness": -0.293}
{"Variant Label": "K17H", "abundance fitness": 0.057}
{"Variant Label": "Y20C", "abundance fitness": -0.182}
{"Variant Label": "D54A", "abundance fitness": -0.214}
{"Variant Label": "D62A", "abundance fitness": -0.188}
{"Variant Label": "S13F", "abundance fitness": -0.267}
{"Variant Label": "G6D", "abundance fitness": -0.046}
{"Variant Label": "Y2V", "abundance fitness": -0.873}
{"Variant Label": "K17R", "abundance fitness": -0.032}
{"Variant Label": "K26F", "abundance fitness": -0.385}
{"Variant Label": "A55H", "abundance fitness": -0.287}

Values compiled from the Human Domainome abundance scans (Beltran et al. 2025).
